assay: in vitro; details: rat, gh3-tre-luc cells, AC50 (uM) modified / 1000, Tox21_110001=Tox21_301206; viability, 1 nM T3 present, 24 h
endpoint: CC50 at 24 h

Ask: Reported CC50 at 24 h, molecule COP(=S)(NC(C)C)Oc1ccc(C)cc1[N+](=O)[O-] (stereo not shown) : ____
Result: > 90 µM

###

test system: GH3-TRE-Luc cell line; conditions: read-out: AC50 (uM) modified / 1000; Tox21_110001=Tox21_112079; viability, 1 nM T3 present, 24 h
endpoint: CC50

Ask: Can you share its CC50? I mean this molecule: O=[N+]([O-])C(Br)(CO)CO
Result: 21.8 µM
